Just for reference, ChEMBL document CHEMBL3044668 is where these values come from.

Test system: Rattus norvegicus
Assay text: Anti-inflammatory activity against Rattus norvegicus Wistar albino (rat) assessed as inhibition of carrageenan-induced paw edema at 20 mg/kg, ip measured 3 hr after carrageenan challenge by plethysmometer
Type: functional
Test context: route intraperitoneal
Quantity kind: inhibition in vivo at 20 mg/kg
Note: a bare number is incomplete; add the unit.

Quickly give me recorded inhibition in vivo at 20 mg/kg for `O=C(N/C(=C/c1ccc(O)cc1)c1nc2ccccc2[nH]1)c1ccccc1`
27.3%

Quickly give me recorded inhibition in vivo at 20 mg/kg for `COc1ccc(/C=C(/NC(=O)c2ccccc2)c2nc3ccc([N+](=O)[O-])cc3[nH]2)cc1`
24.2%

Quickly give me recorded inhibition in vivo at 20 mg/kg for `COc1ccc(/C=C(/NC(=O)c2ccccc2)c2nc3ccc(C)cc3[nH]2)cc1`
30.3%
